- Test system: anti-OVA-specific IgG2a subclass antibody
- EXPERIMENT DESCRIPTION: Adjuvant activity test: anti-OVA-specific IgG2a subclass antibody in serum of OVA-immunized mice (ELISA)
- Type: in vivo, BALB/c mice
- PROTOCOL CONDITIONS: after primary immunization, serum 2 weeks later; OVA 5 μg + compound 0.256 μmol in 5% αCD-added saline (Addavax mixed with saline at 1:1), dorsal-subcutaneous; compared to OVA single administration group
MEASUREMENT NAME: anti-OVA-specific IgG2a subclass antibody production

Past entries and their recorded results:
Requested read-out: anti-OVA-specific IgG2a subclass antibody production. Entry: CCCCCCCCCCCCCCCCCC(=O)N[C@@H](CCCCN)C(=O)NCCCCCCCCCCCC.Cl [SZ185]
significant enhancement

Again, but for CCCCCCCCCCCCNC(=O)[C@H](CCCNC(=N)N)NC(=O)C(=O)CCCCCC.Cl [SZ177]
significantly increased

Again, but for CCCCCCCCCCCCNC(=O)N[C@@H](CCCNC(=N)N)C(=O)NCCCCCCCCCCCC.Cl [SZ212]
significant enhancement

Again, but for CCCCCCCCCCCCCCCCCCCC(=O)N[C@@H](CCCNC(=N)N)C(=O)NCCCCCCCCCCCC.Cl [SZ180]
significant enhancement

Again, but for CCCCCCCCCCCCCCCCCCCCCC(=O)NCCCCCNC(=N)N.Cl [SZ176, N-(5-guanidinopentyl)docosanamide]
significantly increased

Moving on to another molecule below.
Requested read-out: anti-OVA-specific IgG2a subclass antibody production. Entry: CCCCCCCCCCCCCCCC(=O)N[C@@H](CC(C)C)C(=O)NCCCCCCCC [SZ199]
significant enhancement

###

- Tested on: anti-OVA-specific IgG2a subclass antibody
- EXPERIMENT DESCRIPTION: Adjuvant activity test: anti-OVA-specific IgG2a subclass antibody in serum of OVA-immunized mice (ELISA)
- Format: in vivo, BALB/c mice
- PROTOCOL CONDITIONS: after primary immunization, serum 2 weeks later; OVA 5 μg + compound 0.256 μmol in 5% αCD-added saline (Addavax mixed with saline at 1:1), dorsal-subcutaneous; compared to OVA single administration group
MEASUREMENT NAME: anti-OVA-specific IgG2a subclass antibody production

Requested read-out: anti-OVA-specific IgG2a subclass antibody production. Entry: `CCCCCCCCCCCCCCCCCCOC(=O)N[C@@H](CCCNC(=N)N)C(=O)NCCCCCCCCCCCC.Cl`
significant enhancement

Again, but for `CCCCCCCCCCCCCCCCCC(=O)N[C@@H](CCCCNC(=N)N)C(=O)NCCCCCC.Cl`
significant enhancement

Again, but for `CCCCCCCCCCCCNC(=O)[C@H](CCCNC(=N)N)NC(=O)OCCCCCCCCCCCC.Cl`
significant enhancement

###

- Test system: anti-OVA-specific IgG2a subclass antibody
- EXPERIMENT DESCRIPTION: Adjuvant activity test: anti-OVA-specific IgG2a subclass antibody in serum of OVA-immunized mice (ELISA)
- Assay type: in vivo, BALB/c mice
- PROTOCOL CONDITIONS: after secondary immunization, serum 2 weeks later; OVA 5 μg + compound 0.256 μmol in 5% αCD-added saline (Addavax mixed with saline at 1:1), dorsal-subcutaneous; compared to OVA single administration group
MEASUREMENT NAME: anti-OVA-specific IgG2a subclass antibody production

Requested read-out: anti-OVA-specific IgG2a subclass antibody production. Entry: CCCCCCCCCCCCCCCCCCCC(=O)N[C@@H](CCCNC(=N)N)C(=O)NCCCCCCCC.Cl [SZ183]
significant enhancement

Again, but for CCCCCCCCCCCCCCCCCCCCCC(=O)N[C@@H](CC(C)C)C(=O)NCCCCCCCC [SZ198]
tended to increase

Again, but for CCCCCCCCCCCCCCCCOC(=O)N[C@@H](CCCNC(=N)N)C(=O)NCCCCCC.Cl [SZ169]
tended to increase

Again, but for CCCCCCCCCCCCCCCCNC(=O)N[C@@H](CCCCN)C(=O)NCCCCCCCC.Cl [SZ213]
significant enhancement

Continuing:
Requested read-out: anti-OVA-specific IgG2a subclass antibody production. Entry: CCCCCCCCCCCCCCCCOC(=O)N[C@@H](CCCNC(=N)N)C(=O)NCCCCCCCC.Cl [SZ215]
significant enhancement
